Target: T1, BCMA on BCMA-positive NCI-H929, ARP-1 and U266B1 cells (human, UniProt Q02223 1-184)
T1 sequence: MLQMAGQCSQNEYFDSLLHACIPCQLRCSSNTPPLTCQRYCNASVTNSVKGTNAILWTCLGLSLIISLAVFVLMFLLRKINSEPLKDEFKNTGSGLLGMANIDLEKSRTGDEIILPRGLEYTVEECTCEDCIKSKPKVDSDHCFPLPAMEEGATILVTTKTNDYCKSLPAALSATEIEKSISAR
Experiment: cell-based or functional assay
Assign ARP-1, SC239-conjugated 2° antibody cell killing, Span to each entry below.
Give bare numbers, in %.

Reference set (3 entries):
Binder	Test value
10E10 (antibody, V domains shown, chicken HybriFree-derived antibody; also called Antibody 46) VH: AVTLDESGGGLQTPGGGLSLVCKASGFTFSSYGMGWMRQAPGKGLEFVARINSGGSSYTDYGSAVKGRATISRDDGQSTVRLQLNNLRAEDTGIYYCTRGGGGASIDGWGHGTEVIVSS VL: ALTQPSSVSANPGETVKITCSGGGNYAGSYYYGWYQQKSPGSAPLTVIYNSNNRPSDIPSRFSGSLSGSTGTLTITGVRAEDEAVYFCGGFDSSTDAIFGAGTTLTVL	46
11D6 (antibody, V domains shown, chicken HybriFree-derived antibody; also called Antibody 32) VH: AVTLDESGGGLQTPGGTLSLVCKASGFTFSSFNMFWVRQAPGEGLEWVAYIRNDGRSTSYGPAVKGRATISRDNGQSTVRLQLNNLRAEDTGTYFCAKTTCVGSGGCIDTWGHGTEVIVSS VL: ALTQPSSVSANPGETVEITCSGGNSDYGWFQQKSPGSAPVTVIYRNNQRPSDIPSRFSGSGSGSTNTLTITGVQAEDEAIYYCGNVDFTDDVFGAGTTLTVL	83
9E12 (antibody, V domains shown, chicken HybriFree-derived antibody; also called Antibody 43) VH: AVTLDESGGGLQTPGGGLSLVCKASGFTFSDYGLGWMRQAPGKGLEYVARINSAGSGTYYGSAVDGRATISRDNGQSTVRLQLNNLRAEDTGTYYCTRGGGGASIDGWGHGTEVIVSS VL: ALTQPSSVSANPGETVKITCSGGGSYYGSYYYGWYQQKSPGSAPVTLIYNNNNRPSDIPSRFSGSTSGSTGTLTITGVRAEDEAVYYCGSFDSSTDAIFGAGTTLTVL	80

Let's switch to this binder now.
Form field ARP-1, SC239-conjugated 2° antibody cell killing, Span, entry 9A8 (antibody, V domains shown, chicken HybriFree-derived antibody; also called Antibody 30) VH: AVTLDESGGGLQTPGGTLSLVCKASGFTFSSFNMFWVRQAPGKGLEWVAYIRNDGNSASYGPAVKGRATISRDNGQSTVRLQLNNLRAEDTATYYCAKTTCIGSGGCIDTWGHGTEVIVSS VL: ALTQPSSVSANPGETVKITCSGGSSDYGWFQQKSPGSAPVTVIYSNNQRPSGIPSRFSGSKSGSTGTLTITGVQAEDEAIYYCANVDYTDDVFGAGTTLTVL : 82
